biological target: Sodium channel protein type 5 subunit alpha (cardiac sodium channel) (Rattus norvegicus); test: in vitro; conditions: sodium channel from cardiac myocytes, probe [3H]batrachotoxin ([3H]BTX)
Description: Percentage inhibition of specific binding of [3H]batrachotoxin [3H]BTX) in sodium channel from cardiac myocytes at 10 uM
METRIC NAME: inhibition at 10 µM
State the value with its unit after it.

Previously resolved entries follow.
COMPOUND	inhibition at 10 µM
CCC1=NC(c2ccccc2)c2ccc3ccccc3c2CN1C (stereo not given)	98%
CCC1=NCc2ccccc2C(c2ccccc2)N1Cc1ccccc1.Cl (stereo not given)	97%
COc1ccc(OCC2=NC(c3ccccc3)c3ccccc3CN2C)cc1.Cl (stereo not given)	98%
CN1Cc2ccccc2C(Cc2ccccc2)N=C1CCc1ccccc1.O=C(O)/C=C/C(=O)O (stereo not given)	97%
CN1Cc2ccccc2C(c2ccc(Cl)cc2)N=C1CCc1ccccc1 (stereo not given)	96%

Query inhibition at 10 µM on Sodium channel protein type 5 subunit alpha (cardiac sodium channel) (Rattus norvegicus) for CC(C)N(CCC(C(N)=O)(c1ccccc1)c1ccccn1)C(C)C (stereo not given) [DISOPYRAMIDE]
17%

Another compound: CN1Cc2ccccc2C(c2ccccc2)N=C1CCC1CCCCC1.Cl (stereo not given)
98%

Another compound: "CCC1=N[C@H](c2ccccc2)c2ccccc2CN1C.Cl"
42%

Another compound: CCN(CC)CCNC1=NC(c2ccccc2)c2ccccc2CN1C.O=C(O)/C=C/C(=O)O (stereo not given)
98%

Another compound: CCC1=NC(CC)(c2ccccc2)c2ccccc2CN1C (stereo not given)
78%

Another compound: CN1Cc2ccccc2C(c2ccccc2)N=C1COc1ccc(Cl)cc1 (stereo not given)
100%

Another compound: CCCCCC1=NC(c2ccccc2)c2ccccc2CN1C.Cl (stereo not given)
95%

Another compound: CCCCCCCCC1=NC(c2ccccc2)c2ccccc2CN1C.Cl (stereo not given)
81%

Another compound: CCOC(=O)CC1=NC(C)(c2ccccc2)c2ccccc2CN1C (stereo not given)
79%

Another compound: CN1Cc2ccccc2C(c2ccccc2)N=C1CN1CCOCC1.O=C(O)/C=C/C(=O)O (stereo not given)
57%

Another compound: CN1Cc2ccccc2C(c2ccccc2)N=C1CCCc1ccccc1.Cl (stereo not given)
100%

Another compound: CCC1=NC(c2ccccc2)c2ccccc2CN1C(C)C.Cl (stereo not given)
87%

Another compound: CN1Cc2ccccc2C(c2ccccc2)N=C1c1ccccc1 (stereo not given)
85%

Another compound: CCC1=NC(C(C)=O)(c2ccccc2)c2ccccc2CN1C.O=C(O)/C=C/C(=O)O (stereo not given)
28%

Another compound: CCN(CC)CCNC(=O)c1ccc(NS(C)(=O)=O)cc1 [SEMATILIDE]
0%

---

biological target: Sodium channel protein type 5 subunit alpha (cardiac sodium channel) (Rattus norvegicus, UniProt P15389); experiment: in vitro; details: sodium channel from cardiac myocytes, probe [3H]batrachotoxin ([3H]BTX)
Sequence (P15389 whole entry): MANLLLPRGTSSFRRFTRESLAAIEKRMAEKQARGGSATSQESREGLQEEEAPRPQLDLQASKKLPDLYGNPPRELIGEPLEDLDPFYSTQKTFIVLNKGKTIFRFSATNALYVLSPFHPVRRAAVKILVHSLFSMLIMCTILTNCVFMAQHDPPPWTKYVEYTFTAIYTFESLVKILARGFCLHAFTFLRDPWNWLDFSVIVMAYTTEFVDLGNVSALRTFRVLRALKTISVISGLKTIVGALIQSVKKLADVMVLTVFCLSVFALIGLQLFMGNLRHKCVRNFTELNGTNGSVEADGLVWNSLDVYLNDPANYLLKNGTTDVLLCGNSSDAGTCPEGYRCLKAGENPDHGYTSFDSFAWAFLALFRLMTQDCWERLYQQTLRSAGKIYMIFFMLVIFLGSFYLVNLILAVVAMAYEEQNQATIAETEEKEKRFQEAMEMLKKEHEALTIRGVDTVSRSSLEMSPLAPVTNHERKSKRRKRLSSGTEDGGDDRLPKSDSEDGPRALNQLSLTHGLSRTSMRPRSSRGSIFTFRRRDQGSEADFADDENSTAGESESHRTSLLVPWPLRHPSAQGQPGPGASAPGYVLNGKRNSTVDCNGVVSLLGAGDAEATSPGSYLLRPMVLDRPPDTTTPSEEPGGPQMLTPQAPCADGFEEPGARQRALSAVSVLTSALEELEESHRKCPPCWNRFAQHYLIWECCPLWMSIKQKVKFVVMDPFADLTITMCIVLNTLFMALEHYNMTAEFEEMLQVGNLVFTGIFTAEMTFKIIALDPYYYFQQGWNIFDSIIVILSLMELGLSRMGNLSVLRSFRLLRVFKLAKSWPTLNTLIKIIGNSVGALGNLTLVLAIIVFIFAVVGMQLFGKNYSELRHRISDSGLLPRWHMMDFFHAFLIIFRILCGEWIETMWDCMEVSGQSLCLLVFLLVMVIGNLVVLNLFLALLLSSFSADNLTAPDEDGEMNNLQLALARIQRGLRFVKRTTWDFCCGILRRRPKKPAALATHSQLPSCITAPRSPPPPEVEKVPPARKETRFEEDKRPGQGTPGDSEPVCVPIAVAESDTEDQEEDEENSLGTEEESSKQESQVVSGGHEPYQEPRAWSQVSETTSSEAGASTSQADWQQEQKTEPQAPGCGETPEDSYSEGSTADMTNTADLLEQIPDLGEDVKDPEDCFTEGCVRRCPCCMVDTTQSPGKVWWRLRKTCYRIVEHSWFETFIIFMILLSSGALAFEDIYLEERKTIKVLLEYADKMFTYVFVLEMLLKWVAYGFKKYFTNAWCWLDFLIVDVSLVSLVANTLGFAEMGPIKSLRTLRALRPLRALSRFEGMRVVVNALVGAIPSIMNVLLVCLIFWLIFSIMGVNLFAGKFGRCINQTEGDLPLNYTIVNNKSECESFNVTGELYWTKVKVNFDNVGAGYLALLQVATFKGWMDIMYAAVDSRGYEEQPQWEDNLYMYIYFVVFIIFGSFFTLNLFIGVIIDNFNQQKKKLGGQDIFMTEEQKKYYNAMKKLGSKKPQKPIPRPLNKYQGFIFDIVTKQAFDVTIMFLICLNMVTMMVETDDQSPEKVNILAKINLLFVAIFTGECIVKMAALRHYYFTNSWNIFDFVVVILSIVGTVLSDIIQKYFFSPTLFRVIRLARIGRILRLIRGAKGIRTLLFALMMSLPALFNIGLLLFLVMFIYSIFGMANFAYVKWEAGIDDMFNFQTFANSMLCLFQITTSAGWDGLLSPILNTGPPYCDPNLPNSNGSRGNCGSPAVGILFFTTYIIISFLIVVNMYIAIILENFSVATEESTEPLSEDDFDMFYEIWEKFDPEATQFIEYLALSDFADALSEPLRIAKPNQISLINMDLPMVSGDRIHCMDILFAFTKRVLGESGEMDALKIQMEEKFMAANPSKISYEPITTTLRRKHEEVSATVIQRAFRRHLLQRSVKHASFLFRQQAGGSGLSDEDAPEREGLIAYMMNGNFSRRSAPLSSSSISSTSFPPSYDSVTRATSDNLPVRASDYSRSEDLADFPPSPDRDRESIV
METRIC NAME: inhibition at 10 µM

Previously resolved entries follow.
COMPOUND	inhibition at 10 µM
CN(C)CC1=NC(C)(c2ccccc2)c2ccccc2CN1C (configuration not stated)	57%
CN1Cc2ccccc2C(c2ccccc2)N=C1N1CCOCC1.Cl (configuration not stated)	49%
CCC1=NC(c2ccccc2)c2ccccc2CN1.Cl (configuration not stated)	84%
CCN(CC)CC(=O)Nc1c(C)cccc1C [LIDOCAINE]	10%
CCC1=NC(COC)(c2ccccc2)c2ccccc2CN1C (configuration not stated)	45%

// returns reported inhibition at 10 µM for input C=C[C@H]1CN2CC[C@H]1C[C@@H]2[C@@H](O)c1ccnc2ccc(OC)cc12 [QUINIDINE]
68%

Another compound: CCC1=NC(c2ccccc2)c2ccccc2CN1C.Cl (configuration not stated)
50%
